The reported numbers originate from patent US20100234339A1.

test system: S. aureus 1; test: MIC, broth microdilution (NCCLS); assay type: cell-based; details: Gram positive; resistant clinical isolate from diabetic foot ulcer; MHB 24 h 35° C.
For each entry below, report its MIC S. aureus 1 value.
Please answer in the form of a number followed by its unit of measurement.

Answered cases to consult:
- CCOC(=O)c1ccncc1.O=[N+]([O-])[O-].[Ag+] [Compound 3, [Ag(ethylisonicotinato)2]NO3]: 8 µg/mL
- CCOC(=O)c1cccnc1.O=[N+]([O-])[O-].[Ag+] [Compound 2, [Ag(ethylnicotinate)2]NO3]: 16 µg/mL
- Nc1ncccc1C(=O)O.Nc1ncccc1C(=O)O.O=[N+]([O-])[O-].O=[N+]([O-])[O-].[Ag+].[Ag+] [Compound 6, [Ag2-μ-O,O′(2-aminonicotinium)2](NO3)2]: 32 µg/mL

Shifting focus to the molecule that follows.
# return MIC S. aureus 1 for COC(=O)c1ccncc1.O=[N+]([O-])[O-].[Ag+] [Compound 4, [Ag(methylisonicotinate)2]NO3] , test system: S. aureus 1
16 µg/mL

----------
tested on: S. aureus 2; experiment: MIC, broth microdilution (NCCLS); format: cell-based; details: Gram positive; resistant clinical isolate from diabetic foot ulcer; MHB 24 h 35° C.
Task for the reader: assign each of the following compounds its reported MIC S. aureus 2.
Give bare numbers, in mg/L.

* CCOC(=O)c1cccnc1.O=[N+]([O-])[O-].[Ag+] [Compound 2, [Ag(ethylnicotinate)2]NO3] | 4
* CCOC(=O)c1ccncc1.O=[N+]([O-])[O-].[Ag+] [Compound 3, [Ag(ethylisonicotinato)2]NO3] | 4
* COC(=O)c1ccncc1.O=[N+]([O-])[O-].[Ag+] [Compound 4, [Ag(methylisonicotinate)2]NO3] | 32

Read the next record carefully.
Tell me its MIC S. aureus 2 given Nc1ncccc1C(=O)O.Nc1ncccc1C(=O)O.O=[N+]([O-])[O-].O=[N+]([O-])[O-].[Ag+].[Ag+] [Compound 6, [Ag2-μ-O,O′(2-aminonicotinium)2](NO3)2] as the entry.
32

----------
Please provide measured MIC S. pyogenes 3 for the entries that follow.
tested on: S. pyogenes 3; experiment: MIC, broth microdilution (NCCLS); format: cell-based; details: Gram positive; resistant clinical isolate from diabetic foot ulcer; MHB 24 h 35° C.
Numbers only, in µg/mL.

List reported MIC S. pyogenes 3 for each of these molecules:
1. Nc1ncccc1C(=O)O.Nc1ncccc1C(=O)O.O=[N+]([O-])[O-].O=[N+]([O-])[O-].[Ag+].[Ag+] [Compound 6, [Ag2-μ-O,O′(2-aminonicotinium)2](NO3)2]
2. CCOC(=O)c1ccncc1.O=[N+]([O-])[O-].[Ag+] [Compound 3, [Ag(ethylisonicotinato)2]NO3]
3. COC(=O)c1ccncc1.O=[N+]([O-])[O-].[Ag+] [Compound 4, [Ag(methylisonicotinate)2]NO3]
4. CCOC(=O)c1cccnc1.O=[N+]([O-])[O-].[Ag+] [Compound 2, [Ag(ethylnicotinate)2]NO3]

1: 256; 2: 16; 3: 64; 4: 2

----------
Assignment: determine reported MIC S. pyogenes 2 for the given compounds.
test system: S. pyogenes 2; experiment: MIC, broth microdilution (NCCLS); format: cell-based; conditions: Gram positive; resistant clinical isolate from diabetic foot ulcer; MHB 24 h 35° C.
Give bare numbers, in µg/mL.

* CCOC(=O)c1cccnc1.O=[N+]([O-])[O-].[Ag+] [Compound 2, [Ag(ethylnicotinate)2]NO3] | 4

Hi team, please reply with MIC S. pyogenes 2 for each item in this list.
1. CCOC(=O)c1ccncc1.O=[N+]([O-])[O-].[Ag+] [Compound 3, [Ag(ethylisonicotinato)2]NO3]
2. COC(=O)c1ccncc1.O=[N+]([O-])[O-].[Ag+] [Compound 4, [Ag(methylisonicotinate)2]NO3]
3. Nc1ncccc1C(=O)O.Nc1ncccc1C(=O)O.O=[N+]([O-])[O-].O=[N+]([O-])[O-].[Ag+].[Ag+] [Compound 6, [Ag2-μ-O,O′(2-aminonicotinium)2](NO3)2]

[16, 128, 256]
